# ASSAY_OVERVIEW: protease stability score; higher = more stable; yeast display proteolysis, trypsin and chymotrypsin;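 note: relative to predicted unfolded state with 0 unfolded-like and 1 meaning tenfold more protease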
Let's look at some sequences and their measured protease stability score.
RESULT_TYPE: protease stability score

{"BIOSEQUENCE": "DSDHHRAYEYAEFFIEWHETGNEDVLTELLDPHVRLIVDGQHYHGRDLIVRFLVQWRIHRFHIHDVKSIGEYIRVDTHVDMEFDGKRIITQVELVIIKINGRWRYKHISIP", "RESULT": 1.22}
{"BIOSEQUENCE": "SEEEQHLEKMAEDLLHFILTGDEEAMRKMADPTVRLHLHIGDKEERYHGRRDVVRWFHEWVKKVKGMTIEIKRVKVFDGRIFVDGILEINGVKVRVHLITDVIDGKLTRTEERIE", "RESULT": 1.49}
{"BIOSEQUENCE": "REEEEHLKKFIEDHIRDLRTGDEQKVADQADPHVRTRFNGVDYHGREDHMKLMKHIRFEEMRIEDVKVQGDKAHIDSIITIEVDGQRETIKVHIIIVKIDGRWLLKQSHFN", "RESULT": 0.396}
{"BIOSEQUENCE": "DEIREESERFARKLVHDWQTGDWRSLLLLMDPNVRLILHFNGVEYRFHGMEIVLEWLKRLIERVDHVFFHVKDIRIQGDKIELRIEEEFRQGDKSRRHDVVLHLVVIDGKIKSISFEVL", "RESULT": 2.7}
{"BIOSEQUENCE": "SEDIEHVEEALEMFRETLITGDEEIIRRLIDPHVRIIINGREYHGREAMDHFMKRFDVIHNLHITHWEDINGRMHVHGRIEGNIDGKTDVIETRILVVKVDGQWWFETIRIG", "RESULT": 2.27}
{"BIOSEQUENCE": "SEHEEASERMTRLTLHLFETGNEEVFNRLADPHTRVIINGQEHVGRETVIEFLKKERDELGADVLIIKDIDVERQGEKVEVIFHGEIKFNGRYYKVEIIIIYLKVDGKWFIESMKHIVK", "RESULT": 2.37}
